# TEST TARGET: Gag-Pol polyprotein [489-587] (Human immunodeficiency virus 1, UniProt P04585)
# Construct: 489-587
# ASSAY: Inhibitory activity against RNA-dependent DNA polymerase (RDDP) of HIV-1 RT Nucleic Acid polymerase
pIC50: −log10 of the molar value.
OBSERVED PROPERTY: pIC50

* CCCc1cc(=O)oc2c3c(c4c(c12)OC(C)(C)C=C4)O[C@@H](C)C(C)[C@@H]3O (some centres not stated) | 6.01
* CCCc1cc(=O)oc2c3c(c4c(c12)OC(C)(C)C=C4)O[C@@H](C)[C@H](C)[C@@H]3O | 4.56

---

# TEST TARGET: Gag-Pol polyprotein [489-587] (Human immunodeficiency virus 1)
# Construct: 489-587
# ASSAY: Inhibitory activity against DNA -dependent DNA polymerase (DDDP) of HIV-1 RT Nucleic Acid polymerase
pIC50: −log10 of the molar value.
OBSERVED PROPERTY: pIC50

* CCCc1cc(=O)oc2c3c(c4c(c12)OC(C)(C)C=C4)O[C@@H](C)[C@H](C)[C@@H]3O | 3.81
* CCCc1cc(=O)oc2c3c(c4c(c12)OC(C)(C)C=C4)O[C@H](C)[C@@H](C)[C@@H]3O | 6.42
* CCCc1cc(=O)oc2c3c(c4c(c12)OC(C)(C)C=C4)O[C@@H](C)C(C)[C@@H]3O (stereo partly drawn) | 6.15
